Reference source for all entries: patent US20130244896A1

System: hsa-miR-1246
Conditions: correct predictions of three independent experiments
READOUT_NAME: correctness of microRNA prediction, 1246

c1ccc2c(c1)cc1ccc3cccc4ccc2c1c34 [Benzo[a]pyere]    (3/3)
O=c1c(O)c(-c2ccc(O)c(O)c2)oc2cc(O)cc(O)c12    (2/3)
Clc1cc2c(cc1Cl)Oc1cc(Cl)c(Cl)cc1O2    (3/3)
CC1(C)S[C@@H]2[C@H](NC(=O)[C@H](N)c3ccccc3)C(=O)N2[C@H]1C(=O)O [Ampicillin trihydrate]    (1/3)

====

Tested on: hsa-miR-885-3p
Conditions: correct predictions of three independent experiments
READOUT_NAME: correctness of microRNA prediction, 885-3p

O=c1c(O)c(-c2ccc(O)c(O)c2)oc2cc(O)cc(O)c12 [Quercetin]    (1/3)
Clc1cc2c(cc1Cl)Oc1cc(Cl)c(Cl)cc1O2 [2,3,7,8-tetrachloro dibenzo-p-dioxin]    (3/3)
c1ccc2c(c1)cc1ccc3cccc4ccc2c1c34 [Benzo[a]pyere]    (2/3)
CC1(C)S[C@@H]2[C@H](NC(=O)[C@H](N)c3ccccc3)C(=O)N2[C@H]1C(=O)O [Ampicillin trihydrate]    (3/3)
